# ASSAY_PROTOCOL: yeast display, Sf9 membrane polyspecificity reagent, FACS + sequencing; frameworks hold sequencing errors
MEASURED_PARAMETER: polyreactivity (PSR sort gate)

For orientation, consider the following solved cases.
QVQLVESGGGLVQAGGSLRLSCAASGSIFDPYAMGWYRQAPGKEREFVAAISWSGGSTYYADSVKGRFTISRDNAKNTVYLQMNSLIPEDTAVYYCAAGTQWYSQVYIYYYWGQGTQVTVSS | low polyreactivity
QVQLVESGGGLVQAGGSLRLSCAASGRICTRYMGWYRQAPGKERELVATINWSGGSTYYADSVKGRFTISRDNAKNTVYLQMNSLKPEDTAVYYGNARNVDFYYVQYNGAKIFDYWGQGTQVTVSS | low polyreactivity
QVQLVESGGGLVQAGGSLRLSCAASGSTFGYAMGWYRQAPGKEREMVAAITSTGGSTYYADSVKGRFTISRDNAKNTVYVQMHSLKPEDTAVYYCAAQVGRGYEVYPVYKYGYWGQGTQVTVSS | high polyreactivity
QVQLVESGGGLVQAGGSLRLSCAASGRIFVKYAMGWYRQATGKERELVAAISKSGGSTYYADSVKGRFTISRDNAKNTVYLQMNSLKPEDTAVYYCATRSRDQYSVSYRLDYWGQGTQVTVSW | low polyreactivity
QVQLVESGGGLVQAGGSLRFSCAASGSIFGYYSLGWYRQAPGKERELVASITFRDGSTYYADSVKGRFTISRDNAKNTVYLQMNSLKPEDTAVYYCAARYYRRYFSDYDYWGQGTQVTVSS | low polyreactivity
KVQLVESGGGLVQAGGSLRLSCAASGFTFRSYAMGWYRQAPGKERDFVAAITINGGSTYYADSVKGRFTISRDNAKNTVYLQMNSLKPEDTAVYYCAAGTLYRIRGYPLWQYDYWGQGTQVTVSS | high polyreactivity

Entry under review: `QVQLVESGGGLVQAGGSLRLSCAASGSTFRVYAMGWYRQAPGKERELVAAISRSGSITYYADSVKGRFTISRDNAKNTVYLQMNSLKPEDTAVYYCAARTYSRFTASTYYYWGQGTQVTVSS` . Reported polyreactivity (PSR sort gate)?
high polyreactivity

Fill blank: measured polyreactivity (PSR sort gate) of the sequence `QVQLVESGRRLVQAGGSLRLTCAASGSTFTRYAMGWYRQAPGKERELVASISGSGGRTYYADSVKGRFTISRDNAMNTVYLQMNSLKPEDTAVYYCAAKITRRYYPGYLFDYWGQGNQVTVSS` is ____.
high polyreactivity

Bench note: what polyreactivity (PSR sort gate) did `QVQLVESGGGLVQAGGSLRLSCSASGSTFFPYAMGWYRQAPGKERELVAAITSGGNTNYADSVKGRFTISRDNAKNTVYLQMNSLKPEDTAVYYCAADYLWHYRKYDYWGQGTQVTVSS` show?
low polyreactivity

What value of measured polyreactivity (PSR sort gate) is listed for `QVQIVESGGGLVQAGGSLRLSCAASGGILYYYVMGWYRQAPGKERELVADISRGGSTNYADSVKGRFTISRDNAKNTVYFQMNSLKPEDTAVYYCADQDGLKQYTFDYWGQGTQVSVSS` ?
low polyreactivity

Query (sequence): `QVQLVESGGGLVQAGGSLRLSCAASGNTFYPNAMGWYRKAPGKERELVAAISSSGGSTYYADSVKGRFTISRDNAKNTVYLQMNSLKPEDTAVYYRAAEFDYPWSGEYYYWGQGTQVTVSS` ; field requested: polyreactivity (PSR sort gate)
high polyreactivity

---

# ASSAY_PROTOCOL: yeast display, Sf9 membrane polyspecificity reagent, FACS + sequencing; frameworks hold sequencing errors
MEASURED_PARAMETER: polyreactivity (PSR sort gate)

QVQLVESGGGLVQAGGSLLLSCAASGITFSYYAMGWYRQAPGKERELVAAISRTGTSTYYADSVKGRFTISRDNAKNTVYLQMKSLKPEDTAVYYCAAVPRHPYHDKYDYWGQGTQVTVSS | high polyreactivity
QVQLVESGGGLVQAGGSLRLSCADSGSTFWYYVMGWYRQAPGKERELVAVINTRGGSTYYADSVKGRFTISRDNAKNTVYLQMNSLKPEDTAVYYCNARKVKRGKYNYWGQGTQVTVSS | high polyreactivity
QVQLVESGGGLVQAGGSLRLSCAASGFTFRVNAMGWYRQAPGKERELVARISSSGGITYYADSVKGRFTISRDNAKNTVYLQMNSLKPEDTAVYYCAKEVYSGYSTRARSRYYEYYYWGQGTQVTVSS | high polyreactivity
QVQLVESGGGLVQAGGSLRLSCAASGSIFQIYAMGWYRQAPGKERELAAAINSGGITKYADSVKGRFTISRDNAKNTVYLQMNSLKPEDTAVYYCAKRYGWPYGRFDYWGQGTQVTVSS | low polyreactivity
QVQLVESGGGLVQAGGSLRLSCAASGRTFKSYSMGWYRPAPGKERELVAAISWSGGSTYYADSVKGRFTISRDNAKNTVYLQMNSLKPEDTAVYYCAKRGYASGSKWDYGYWGQGTQVTVSS | high polyreactivity
QVQLVESGGGLVQAGGSLRLSCAASGSISIRNAMGWYRQAPGTERELVAAITYSGGSTYYADSVKGRFTISRDNAKNTVYLQLNRLKPEDTAVYYCAKDHYRFRYDYWGQGTQVTVSS | low polyreactivity

Endpoint output: polyreactivity (PSR sort gate) of `QVQLVESGGGLVQAGGSLRLSSPDSGLIFYLYAMGWYRQSHGKEREFVAAITSGGGSTYYADSVKGRFTISRDNAKNTVYLQINILIPEDTAVFYCAARLVLYITVVYEVDYWGQGTQVTVSS` . Value?
low polyreactivity

polyreactivity (PSR sort gate) for `QVQIVESGGGLVQAGGSLRLSCAASGRIFDLNAMGWYRQAPGKEREFVASITWSVGSTYYADSVKGRFTISRDNAKNTVYLQMNSLKPEVTAVYYCAARSLSWTPYYYWGQGTQVTVSS` ?
high polyreactivity

Reported polyreactivity (PSR sort gate), sequence `QVQLVESGGGLVQAGGSLRLSCASSGLIFYDNMGWYRQAPGKETELVAAISSSGGSTSYADSVKGRFTISRDNAKNTVYLQMNSLKPEDTAVYYCAADSYPAYLGFFGFDYWGQGTQVTVSS` : ____
low polyreactivity

Suppose we examine the sequence `QVQLVESGGGLVQAGGSLRLSCAASGSIFFYNTMGWYRQAPGKERELVAAISASGGRTYYADSVKGRFTISRDYSKNTVYLQMNSLKPEDTAVYYCAVRVPYRGYTRYDYWGHGTQVTVSS` ; what polyreactivity (PSR sort gate) value has been reported?
high polyreactivity

I would be grateful if you could share the reported polyreactivity (PSR sort gate) for `QVQLVESGGGLVQAGGSLRLTCAASGRTFYPYAMGWYRPAPGKERELVAAISSGVRTYYADSVKGRFTISRDNAKNTVYLQMNSLKPDDTAVYYCAARRSIWGQGTQVTVSS` .
high polyreactivity

---

# ASSAY_PROTOCOL: yeast display, Sf9 membrane polyspecificity reagent, FACS + sequencing; frameworks hold sequencing errors
MEASURED_PARAMETER: polyreactivity (PSR sort gate)

Check out these entries, answers already filled in.
QVQLVESGGGLVQAGGSLRLSCAASGFIFAYNAMGWYRQAPGKEREFVAAINSGGDSTYYADSVKGRFTISRDYANNTVYLQMNSLKPEDTAVYSCAAVIGNKRYYYWGQGTQVTVSS | low polyreactivity
QVQLVESGGALVQAGGSLRLSCAASGFIFRYYAMGWYRQAPWKERELVATITGRGGSTYYADSVKGRFTISRDNAMNTVYLQMNSLKPEDTAVYYCAKRGYGRYYAYDYWGQGTQVTVSS | high polyreactivity
QVQLVESGGRLVQAGGSLRLSCAASGRIIYGYAMGWYRQAPGKERELVATITWSGGSTYYADSVKGRFTISRDNAKNTVYLQMNSLKPEDTAVYYCAAYSPFIYQAYRYDYWGQGTLVTVSS | low polyreactivity
QVQLVESGGGLVQAGGSLRLSCAASGSTFWAYVMGWYRQAPGKESELVAAISKSGVRTHYADSVKGRFTISRDNAKNTVYLQMNSLKPEDTAVYYCAAEWSWGPYRFDYWGQGTQVTVSS | high polyreactivity

Turning now to a further record.
Can you share its polyreactivity (PSR sort gate)? I mean this sequence: `QVQLVESGGGLVQAGGSLRLSCAASGSTFVQNAMGWYRQAPGKERELVAAISRTGGSTYYADSVKGRITFSRDNAKNTVYLQLNTLKPEDTAVYFCAKRPPHYSWPKIIEFGSWGQGTQVTVSS`
high polyreactivity

---

# ASSAY_PROTOCOL: yeast display, Sf9 membrane polyspecificity reagent, FACS + sequencing; frameworks hold sequencing errors
MEASURED_PARAMETER: polyreactivity (PSR sort gate)

QVQIVESGGGLVQAGGSLRLSCPASGRIFYNNAMGWYRPAPGKERELVAAINWSGGSTYYADSVKGRFTISRDNAKNTVYLQMNSLKPEDTAVYYCNADPHGYYGYGYDYWGQGTQVTVSS | low polyreactivity
QVQLVDSGGGLVQAGGSLRLSCAASGRTFGGNAIGRYIQAPGKETELVAGINISGGSTNYADSVKGRFTISRDNAMNTVYLQMNSLKPEDTPVYYCNADTAVYAWDDDYWGQGTQVTVSS | low polyreactivity
QVQLVESGGGLVQAGGSLRLSCAASGSLFNYYAMAWSRTAPGKERELVAGITTSGGSTYYAESVKGRFRISRDNAKNTVYLQMNSLKPEDTAVYYCAAYDYISSTYFLDDYWGQGTQVTVSS | low polyreactivity
